- measuredTarget: AMPK alpha2/beta1/gamma1 (Homo sapiens, UniProt P54619+P54646+Q9Y478)
- Sequence (P54646 whole entry): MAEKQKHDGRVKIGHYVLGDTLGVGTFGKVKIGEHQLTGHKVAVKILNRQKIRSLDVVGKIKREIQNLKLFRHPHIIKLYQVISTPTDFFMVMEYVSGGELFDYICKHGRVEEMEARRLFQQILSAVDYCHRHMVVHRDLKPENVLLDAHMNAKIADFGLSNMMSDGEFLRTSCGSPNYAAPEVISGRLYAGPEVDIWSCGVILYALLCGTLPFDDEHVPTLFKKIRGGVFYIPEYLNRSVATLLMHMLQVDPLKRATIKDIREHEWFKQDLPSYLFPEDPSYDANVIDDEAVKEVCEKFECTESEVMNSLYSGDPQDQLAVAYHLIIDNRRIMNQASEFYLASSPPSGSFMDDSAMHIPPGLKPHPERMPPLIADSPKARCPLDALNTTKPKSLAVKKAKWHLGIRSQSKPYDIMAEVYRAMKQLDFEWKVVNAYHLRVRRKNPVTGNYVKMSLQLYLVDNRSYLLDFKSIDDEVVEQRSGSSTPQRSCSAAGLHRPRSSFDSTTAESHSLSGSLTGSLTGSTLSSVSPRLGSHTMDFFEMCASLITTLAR
- Sequence (P54619 whole entry): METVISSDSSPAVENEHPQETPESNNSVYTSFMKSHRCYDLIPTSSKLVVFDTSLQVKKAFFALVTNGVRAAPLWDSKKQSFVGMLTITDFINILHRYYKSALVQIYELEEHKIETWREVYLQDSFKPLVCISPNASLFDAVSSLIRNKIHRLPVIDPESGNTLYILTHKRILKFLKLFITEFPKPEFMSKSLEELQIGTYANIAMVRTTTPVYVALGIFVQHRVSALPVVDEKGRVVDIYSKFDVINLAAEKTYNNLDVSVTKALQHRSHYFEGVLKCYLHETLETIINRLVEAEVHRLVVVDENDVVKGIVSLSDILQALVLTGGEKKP
- Sequence (Q9Y478 whole entry): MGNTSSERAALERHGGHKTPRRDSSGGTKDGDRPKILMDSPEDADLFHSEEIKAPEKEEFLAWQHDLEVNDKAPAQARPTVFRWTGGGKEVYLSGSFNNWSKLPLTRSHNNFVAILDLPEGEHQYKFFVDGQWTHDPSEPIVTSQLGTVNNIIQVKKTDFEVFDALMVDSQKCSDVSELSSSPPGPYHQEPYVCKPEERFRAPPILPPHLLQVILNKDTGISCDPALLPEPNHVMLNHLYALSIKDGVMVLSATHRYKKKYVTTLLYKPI
- assay: Inhibition of AMPK alpha2beta1gamma1 (unknown origin) by HTRF assay
pIC50: −log10 of the molar value.
reportedMetric: pIC50

CC(C)(O)CC(=O)N1CCc2cc(Nc3ncc(C(F)(F)F)c(N[C@H]4CC[C@@H](N)CC4)n3)ccc2C1: 7.74

====

- measuredTarget: UniProt:Q12809
- assay: Inhibition of hERG expressed in HEK293 cells at 20 uM by whole cell patch clamp analysis
- Assay type: toxicity, cell-based
- conditionNotes: HEK293 cells expressing hERG
Here, each record is paired with measured inhibition at 20 µM data.
reportedMetric: inhibition at 20 µM (%)

CC(=O)N1Cc2ccc(Nc3ncc(C(F)(F)F)c(N[C@H]4CC[C@@H](N)CC4)n3)cc2C1: 28.3
Cn1ccc2cc(Nc3ncc(C(F)(F)F)c(N[C@H]4CC[C@@H](N)CC4)n3)ccc2c1=O: 75.9
Cn1cnc2cc(Nc3ncc(C(F)(F)F)c(N[C@H]4CC[C@@H](N)CC4)n3)ccc2c1=O: 48.3
CC(C)(O)Cn1ncc2cc(Nc3ncc(C(F)(F)F)c(N[C@H]4CC[C@@H](N)CC4)n3)ccc2c1=O: 48.1
CC(C)(O)CC(=O)N1Cc2ccc(Nc3ncc(C(F)(F)F)c(N[C@H]4CC[C@@H](N)CC4)n3)cc2C1: 19.3
C[C@H](O)C(=O)N1CCc2cc(Nc3ncc(C(F)(F)F)c(N[C@H]4CC[C@@H](N)CC4)n3)ccc2C1: 13.6
CC(C)(O)C(=O)N1CCc2ccc(Nc3ncc(C(F)(F)F)c(N[C@H]4CC[C@@H](N)CC4)n3)cc2C1: 28.1
CC(=O)N1CCc2ccc(Nc3ncc(C(F)(F)F)c(N[C@H]4CC[C@@H](N)CC4)n3)cc2C1: 43.4
Cn1ncc2cc(Nc3ncc(C(F)(F)F)c(N[C@H]4CC[C@@H](N)CC4)n3)ccc2c1=O: 81.9
CC(C)(O)CC(=O)N1CCc2cc(Nc3ncc(C(F)(F)F)c(N[C@H]4CC[C@@H](N)CC4)n3)ccc2C1: 2.37
CN1CCc2cc(Nc3ncc(C(F)(F)F)c(N[C@H]4CC[C@@H](N)CC4)n3)ccc2C1=O: 40.9
CC(C)(O)CC(=O)N1CCc2ccc(Nc3ncc(C(F)(F)F)c(N[C@H]4CC[C@@H](N)CC4)n3)cc2C1: 43.9
CC(C)(N)CCNc1nc(Nc2ccc3c(c2)CCN(C(=O)CC(C)(C)O)C3)ncc1C(F)(F)F: 31.9
N[C@H]1CC[C@@H](Nc2nc(Nc3ccc4c(c3)CCN(C(=O)CO)C4)ncc2C(F)(F)F)CC1: 10.4

====

- measuredTarget: Hepatocyte growth factor receptor (Homo sapiens, UniProt P08581)
- Sequence (P08581 whole entry): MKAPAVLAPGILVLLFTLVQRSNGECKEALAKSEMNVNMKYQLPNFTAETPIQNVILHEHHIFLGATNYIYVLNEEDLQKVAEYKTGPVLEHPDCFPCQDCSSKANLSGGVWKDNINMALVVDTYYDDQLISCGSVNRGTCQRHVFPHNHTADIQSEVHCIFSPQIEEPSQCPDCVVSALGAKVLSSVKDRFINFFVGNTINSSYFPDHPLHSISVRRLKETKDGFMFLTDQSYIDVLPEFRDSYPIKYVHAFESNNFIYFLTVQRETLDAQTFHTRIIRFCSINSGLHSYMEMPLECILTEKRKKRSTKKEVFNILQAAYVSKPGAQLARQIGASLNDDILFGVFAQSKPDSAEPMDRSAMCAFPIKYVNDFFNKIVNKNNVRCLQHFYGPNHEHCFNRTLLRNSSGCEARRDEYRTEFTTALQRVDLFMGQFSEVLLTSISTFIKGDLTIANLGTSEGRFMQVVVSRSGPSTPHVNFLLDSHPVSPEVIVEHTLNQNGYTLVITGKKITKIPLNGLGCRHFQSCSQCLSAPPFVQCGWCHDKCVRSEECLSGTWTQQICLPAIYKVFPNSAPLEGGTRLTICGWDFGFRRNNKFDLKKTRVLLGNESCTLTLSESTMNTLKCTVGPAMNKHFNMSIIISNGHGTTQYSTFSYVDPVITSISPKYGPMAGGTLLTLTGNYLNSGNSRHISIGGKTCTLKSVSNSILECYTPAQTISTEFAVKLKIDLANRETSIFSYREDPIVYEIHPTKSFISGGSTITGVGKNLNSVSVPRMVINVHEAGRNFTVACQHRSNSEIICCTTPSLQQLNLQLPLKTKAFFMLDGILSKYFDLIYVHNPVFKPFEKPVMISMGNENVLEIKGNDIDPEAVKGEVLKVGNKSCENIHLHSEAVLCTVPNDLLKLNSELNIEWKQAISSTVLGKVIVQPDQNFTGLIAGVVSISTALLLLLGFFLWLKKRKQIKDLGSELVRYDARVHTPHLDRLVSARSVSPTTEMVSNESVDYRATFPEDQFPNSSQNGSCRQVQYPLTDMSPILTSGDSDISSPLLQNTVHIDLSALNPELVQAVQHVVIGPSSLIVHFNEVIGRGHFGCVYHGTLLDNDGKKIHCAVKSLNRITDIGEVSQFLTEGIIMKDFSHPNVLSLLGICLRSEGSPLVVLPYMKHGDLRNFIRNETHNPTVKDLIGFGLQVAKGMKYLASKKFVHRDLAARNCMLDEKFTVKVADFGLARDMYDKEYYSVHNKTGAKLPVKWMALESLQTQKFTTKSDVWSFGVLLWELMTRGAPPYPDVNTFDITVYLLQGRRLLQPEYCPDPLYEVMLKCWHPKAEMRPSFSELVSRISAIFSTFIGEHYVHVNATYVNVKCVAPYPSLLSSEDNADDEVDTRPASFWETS
reportedMetric: IC50

CC(C)(O)CC(=O)N1CCc2cc(Nc3ncc(C(F)(F)F)c(N[C@H]4CC[C@@H](N)CC4)n3)ccc2C1: > 10 µM

====

- measuredTarget: Voltage-gated inwardly rectifying potassium channel KCNH2 (Homo sapiens, UniProt Q12809)
- Sequence (Q12809 whole entry): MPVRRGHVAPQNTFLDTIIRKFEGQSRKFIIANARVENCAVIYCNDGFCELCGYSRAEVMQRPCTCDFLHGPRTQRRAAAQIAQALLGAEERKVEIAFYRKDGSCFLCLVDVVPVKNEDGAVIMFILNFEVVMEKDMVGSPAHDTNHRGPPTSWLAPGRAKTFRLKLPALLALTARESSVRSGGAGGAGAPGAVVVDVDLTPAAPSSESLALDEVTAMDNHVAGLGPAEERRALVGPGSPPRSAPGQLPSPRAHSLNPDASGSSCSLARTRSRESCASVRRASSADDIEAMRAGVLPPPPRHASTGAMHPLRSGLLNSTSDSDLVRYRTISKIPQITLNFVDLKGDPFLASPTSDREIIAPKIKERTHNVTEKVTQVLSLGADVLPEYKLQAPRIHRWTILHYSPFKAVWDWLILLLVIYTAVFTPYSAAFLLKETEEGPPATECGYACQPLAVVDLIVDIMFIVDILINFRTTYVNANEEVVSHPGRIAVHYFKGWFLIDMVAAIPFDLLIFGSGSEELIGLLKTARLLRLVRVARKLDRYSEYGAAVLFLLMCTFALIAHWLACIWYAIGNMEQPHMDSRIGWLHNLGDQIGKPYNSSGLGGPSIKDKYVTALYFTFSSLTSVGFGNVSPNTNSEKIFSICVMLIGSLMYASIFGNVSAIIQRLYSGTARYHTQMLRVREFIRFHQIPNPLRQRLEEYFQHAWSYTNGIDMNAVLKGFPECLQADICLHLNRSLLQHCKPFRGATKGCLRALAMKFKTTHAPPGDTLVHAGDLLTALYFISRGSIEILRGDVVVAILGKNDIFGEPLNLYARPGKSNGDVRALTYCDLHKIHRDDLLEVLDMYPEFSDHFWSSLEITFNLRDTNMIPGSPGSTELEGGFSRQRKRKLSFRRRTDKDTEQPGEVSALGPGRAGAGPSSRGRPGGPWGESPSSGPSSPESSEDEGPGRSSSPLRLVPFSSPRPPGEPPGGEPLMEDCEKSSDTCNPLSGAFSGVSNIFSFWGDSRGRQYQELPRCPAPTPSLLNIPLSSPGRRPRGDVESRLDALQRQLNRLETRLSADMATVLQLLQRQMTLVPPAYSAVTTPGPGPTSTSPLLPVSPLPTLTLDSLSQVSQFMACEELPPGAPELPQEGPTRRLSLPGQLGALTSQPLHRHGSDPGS
- assay: Inhibition of hERG expressed in HEK293 cells assessed as inhibition of channel current amplitude by whole cell patch clamp analysis
reportedMetric: IC50 (µM)

CC(C)(O)CC(=O)N1CCc2cc(Nc3ncc(C(F)(F)F)c(N[C@H]4CC[C@@H](N)CC4)n3)ccc2C1: 58.4
